Taken from ChEMBL document CHEMBL3797091.

# subject.of.test: Gamma-secretase (Homo sapiens) (UniProt Q96BI3+Q9NZ42+Q8WW43+P49768+Q92542+P49810)
# test.name: Inhibition of human gamma secretase mediated notch 1 processing by Western blot analysis
# Assay type: protein-complex assay
Active and inactive are the calls of the source. The calls are words filed in the database; no cut-off is given here.
Labels: active, inactive

* OC(CCN1CCN(Cc2ccccc2)CC1)c1ccc2ccccc2c1 (racemic) | inactive
* COc1cc(CN(CCC(O)c2ccc3ccccc3c2)C(C)C)cc(OC)c1 (racemic) | inactive
* OC(CCN1CCN(c2ccccc2)CC1)c1ccc2ccccc2c1 (racemic) | inactive
* CC(C)N(Cc1ccccc1)CC(O)c1ccc2ccccc2c1 (racemic) | active
* CC(C)N(CCC(O)c1ccc2ccccc2c1)Cc1ccc(F)c(F)c1 (racemic) | inactive
